Biological target: T1, human erythropoietin receptor (huEpoR), cell surface expressed (human) (UniProt P19235)
T1 sequence (looked up): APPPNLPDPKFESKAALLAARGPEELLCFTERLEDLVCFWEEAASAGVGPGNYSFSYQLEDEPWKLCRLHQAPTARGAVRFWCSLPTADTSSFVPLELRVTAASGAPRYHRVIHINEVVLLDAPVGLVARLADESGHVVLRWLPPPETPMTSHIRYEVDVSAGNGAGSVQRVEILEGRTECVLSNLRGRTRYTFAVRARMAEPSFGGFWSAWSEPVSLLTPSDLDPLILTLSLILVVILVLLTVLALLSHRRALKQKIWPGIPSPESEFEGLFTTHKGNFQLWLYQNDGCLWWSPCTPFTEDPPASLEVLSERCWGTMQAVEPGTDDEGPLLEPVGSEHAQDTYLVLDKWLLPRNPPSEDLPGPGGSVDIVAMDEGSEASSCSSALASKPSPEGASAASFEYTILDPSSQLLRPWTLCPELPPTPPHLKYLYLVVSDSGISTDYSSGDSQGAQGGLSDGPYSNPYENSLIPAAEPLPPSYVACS
Assay: cell-based or functional assay
PROPERTY: Average EC50, UT-7-luciferase assay (nM)
Note: unit nM is implicit; provide only the numeric part.

# BINDER, Average EC50, UT-7-luciferase assay / nM
records = [
    ("clone 276 scFv-Fc protein (Fc fusion, part only; not given: scFv linker and IgG1 Fc, not shown: a dimerising Fc or GST) scFv, part: EVQLVQSGGGLVQPGGSLRLSCAASGFTFSSYWMSWVRQAPGKGLEWVANIKPDGSEKYYVDSVKGRFTISRDNAKNSVYLQMNSLRAEDTAVYYCARVSRGGSYSDWGRGTMVTVSSQSVLTQPPSASGSPGQSVTISCTGTSSDVGGFNYVSWYQKYPGKAPKLVIYEVSKRPSGVPDRFSGSKSGNTASLTVSGLQAEDEADYYCSSWAPGKNLFGGGTKLTVL", 0.322),
    ("clone 323 scFv-Fc protein (Fc fusion, part only; not given: scFv linker and IgG1 Fc, not shown: a dimerising Fc or GST) scFv, part: QVQLVESGGGLVQPGGSLRLSCAVSGFTFSKYWMTWVRQAPGKGLEWVANIKPDGSEKYYVESVKGRFTISRDNAKNSVYLQMNSVRAEDTAVYYCARVSRGGSFSDWGRGTMVTVSSQSALTQPASVSGSPGQSITISCTGTSSDVGSYNLVSWYQQHPGKVPKLIIYEVSNRPSGVSHRFSGSKSGNTASLTISGLQAEDEADYYCSSLTSSGTWVFGGGTKVTVL", 0.613),
    ("clone 295 scFv-Fc protein (Fc fusion, part only; not given: scFv linker and IgG1 Fc, not shown: a dimerising Fc or GST) scFv, part: EVQLVESGGGLVQPGGSLRLSCAASGFTFSSYAMSWVRQAPGKGLEWVSGISGSGSSEGGTYYADSVKGRFTLSRDNSKNTLYLQMNSLRAEDTALYYCVKDRPSRYSFGYYFDYWGRGTLVTVSSLPVLTQPPSVSVSPGQTASIACSGNKLGDKYVSWYQQKPGQSPLLVIYQDTKRPSGIPERFSGSNSGNTATLTISGTQAMDEADYYCQAWDSSTDVVFGGGTKLTVL", 0.607),
    ("clone 352 scFv-Fc protein (Fc fusion, part only; not given: scFv linker and IgG1 Fc, not shown: a dimerising Fc or GST) scFv, part: EVQLVQSGGGLVQPGGSLRLSCAASGFRFSSYWMTWVRQAPGKGLEWVANIKPDGSEKYYVDSVKGRFTMSRDNAKNSVYLQMNSLRAEDTAVYYCARVSRGGSFSDWGQGTLVTVSSQSALTQPASVSGSPGQSITIPCTGTSSDIGTYDYVSWYQQHPGKVPKVIIYEVTNRPSGVSNRFSGSKSGNTASLTISGLQADDEADYYCNSFTKNNTWVFGGGTKLTVL", 2.16),
]

The recorded Average EC50, UT-7-luciferase assay for clone 378 scFv-Fc protein (Fc fusion, part only; not given: scFv linker and IgG1 Fc, not shown: a dimerising Fc or GST) scFv, part: QVQLVESGGGLVQPGRSLILSCAVSGFTFSKYWMTWVRQAPGKGLEWVANIKPDGSEKYYVESVKGRFTISRDNAKNSVYLQMNSVRAEDTAVYYCARVSRGGSFSDWSQGTLVTVSSQSALTQPPSASGSPGQSVTISCTGTSGDVGAYNYVSWYQQYPGKAPKLMIYEVSKRPSGVPDRFSGSKSGNTASLTVSGLQAEDEADYYCNSYRGSNGPWVFGGGTKVTVL is 0.055

Item: clone 318 scFv-Fc protein (Fc fusion, part only; not given: scFv linker and IgG1 Fc, not shown: a dimerising Fc or GST) scFv, part: QVQLVESGGGLVQPGGSLRLSCAVSGFTFSKYWMTWVRQAPGKGLEWVANIKPDGSEKYYVESVKGRFTISRDNAKNSVYLQMNSVRAEDTAVYYCARVSRGGSFSDWGQGTLVTVSSQSVLTQPPSASGSPGQSVTISCTGTSSDVGGYNYVSWYQQHPGRAPKLIIYEVSKRPSGVPDRFSGSKSGNTASLTVSGLQADDEADYYCNSYAGSIYVFGSGTKVTVL | Average EC50, UT-7-luciferase assay: 0.0154

get_value(item= clone 34 scFv-Fc protein (Fc fusion, part only; not given: Linker and IgG1 Fc, not shown: another chain or arm of the molecule; a dimerising Fc or GST; small tags and cut ends) VH: QVQLQQSGAEVKKPGASVKVSCKASGYTFSGYYMHWVRQAPGQGLEWMGWINPNSGSTNYAQKFLGRVTMTRDTSISTAYMELSSLRSDDTAVYYCARGHSGDYFDYWGQGTLVTVSA VL: EIVLTQSPSSLSASVGDRVTITCRASQSVSSWLAWYQQRPGQAPKLLIYAARLRGGGPSRFSGSGSGTEFTLTISSLQPEDFATYFCQQSYSTPISFGGGTKLEIK , readout=Average EC50, UT-7-luciferase assay) returns 0.11

// recorded Average EC50, UT-7-luciferase assay for clone 15 scFv-Fc protein (Fc fusion, part only; not given: scFv linker and IgG1 Fc, not shown: a dimerising Fc or GST) scFv, part: QVQLQESGPGLVRPSGTLSLTCAVSGGSIGSSNWWSWVRQAPGKGLEWIGEISQSGSTNYNPSLKGRVTISLDRSRNQLSLKLSSVTAADTAVYYCARQLRSIDAFDIWGPGTTVTVSASYVLTQPPSVSVSPGLTATITCSGDKLGDKYASWYQQKPGQSPVLVIYQDRKRPSGIPERFSGSNSGNTATLTISGTQAVDEADYYCQAWDSDTSYVFGTGTQLTVL : 2.8

Entry under test: clone 307 scFv-Fc protein (Fc fusion, part only; not given: scFv linker and IgG1 Fc, not shown: a dimerising Fc or GST) scFv, part: EVQLVESGGGLVQPGGSLRLSCAVSGFTFSKYWMTWVRQAPGKGLEWVANIKPDGSEKYYVESVKGRFTISRDNAKNSVYLQMNSVRAEDTAVYYCARVSRGGSFSDWGQGTMVTVSSQSVLTQPPSASGSPGQSVTISCTGTSSDVGGYNYVSWYQQHPDKAPRLMIYDVNKRPSGVPDRFSGSKSGNTASLTVSGLQAEDEAHYYCNSYAGSNNWVFGGGTQLTVL . Its Average EC50, UT-7-luciferase assay was 0.381

The binder identified as clone 319 scFv-Fc protein (Fc fusion, part only; not given: Linker and IgG1 Fc, not shown: another chain or arm of the molecule; a dimerising Fc or GST; small tags and cut ends) VH: QVQLVQSGAEIKKPGASVKVSCKTFGSPFSTNDIHWVRQAPGQGLEWMGIIDTSGAMTRYAQKFQGRVTVTRETSTSTVYMELSSLKSEDTAVYYCAREGCTNGVCYDNGFDIWGQGTLVTVSS VL: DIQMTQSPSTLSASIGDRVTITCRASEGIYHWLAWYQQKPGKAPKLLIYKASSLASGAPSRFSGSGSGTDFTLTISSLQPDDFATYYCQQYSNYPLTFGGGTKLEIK registered its Average EC50, UT-7-luciferase assay at 5.87
